Assayed target: MGL (Rattus norvegicus, UniProt Q8R431)
Construct: one g rat brain was homogenized using a Polytron homogenizer; from tissue; host or cells: rat brain homogenate
Method summary: 2-AG accumulation assay in rat brain homogenate
Type: biochemical
Cond: rat brain homogenate; compound 1 μM; 2-AG accumulation as percent of vehicle; read-out: Rat Brain 2AG % VehCntrl (%) @ 1 μM
Output YES for 2-AG accumulation, % of vehicle control at 1 µM not less than 200%; output NO otherwise.

// below: answered compounds
O=C(c1ccc2c(-c3ccc(C(F)(F)F)cc3)c[nH]c2c1)N1CC(N2CCN(C(=O)c3cscn3)CC2)C1 [Cpd 1344] ... YES
Cc1cc(C(=O)N2CC(N3CCN(C(=O)c4ccccc4)CC3)C2)ccc1-c1ccc(F)c(Cl)c1 [Cpd 259] ... NO
O=C(c1cc(-c2ccccc2)n(-c2ccccc2)n1)N1CC(N2CCN(C(=O)c3nccs3)CC2)C1 [Cpd 1164] ... YES
Cc1c(C(=O)N2CC(N3CCN(C(=O)c4nccs4)CC3)C2)[nH]c2ccc(Cl)cc12 [Cpd 688] ... YES
Cc1cc(C(=O)N2CC(N3CCN(C(=O)c4cscn4)CC3)C2)ccc1-c1ccccc1 [Cpd 1406] ... NO

Exercise: In plain terms: is recorded 2-AG accumulation, % of vehicle control at 1 µM at least 200% for Cc1ccc(-n2ccc3cc(C(=O)N4CC(N5CCN(C(=O)c6nccs6)CC5)C4)ccc32)cn1 [Cpd 1105] ?
Solution: YES

Exercise: In plain terms: is recorded 2-AG accumulation, % of vehicle control at 1 µM at least 200% for O=C(c1cscn1)N1CCN(C2CN(C(=O)c3sc4cc(-c5ccccc5)ccc4c3Cl)C2)CC1 [Cpd 345] ?
Solution: YES

Exercise: In plain terms: is recorded 2-AG accumulation, % of vehicle control at 1 µM at least 200% for O=C(c1ccc2c(-c3ccccc3)ncnc2c1)N1CC(N2CCN(C(=O)c3nccs3)CC2)C1 [Cpd 1130] ?
Solution: YES

----------
Recorded pKd, one value per entry.
Assayed target: mutant MGL (Homo sapiens, UniProt Q99685, L169S/L176S)
Sequence (Q99685 1-303 L169S/L176S): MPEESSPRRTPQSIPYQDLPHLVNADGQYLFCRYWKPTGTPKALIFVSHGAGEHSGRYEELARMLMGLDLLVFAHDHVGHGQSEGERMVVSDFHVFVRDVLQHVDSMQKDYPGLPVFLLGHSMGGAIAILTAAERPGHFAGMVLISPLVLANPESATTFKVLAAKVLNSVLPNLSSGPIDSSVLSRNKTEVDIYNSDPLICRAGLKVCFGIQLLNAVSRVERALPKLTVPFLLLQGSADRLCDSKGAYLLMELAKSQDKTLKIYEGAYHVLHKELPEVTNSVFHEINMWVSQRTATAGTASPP
Method summary: MGL ThermoFluor assay - mutant
Type: binding
Cond: compound concentration measured by qNMR, read-out: MGL mutant ThermoFluor qKd (using qNMR conc.)
Would you please state pKd, meaning minus log10 of the concentration in mol/L, as a bare number?

O=C(c1ccc(Oc2ncc(C(F)(F)F)cc2Cl)cc1)N1CC(N2CCN(C(=O)C(F)(F)F)CC2)C1 ... 5.78
O=C(c1ccc(Sc2cccc(C(F)(F)F)c2)cc1)N1CC(N2CCN(C(=O)C(F)(F)F)CC2)C1 ... 5.60
Cc1nc2cc(C(=O)N3CC(N4CCN(C(=O)c5cscn5)CC4)C3)ccc2n1CC(F)(F)F ... 6.25

Exercise: Provide only the value of recorded pKd for Cc1nc2cc(C(=O)N3CC(N4CCN(C(=O)c5nccs5)CC4)C3)ccc2n1C1CCC(F)(F)CC1
Solution: 8.40

----------
Assayed target: MGL (Rattus norvegicus, UniProt Q8R431)
Construct: one g rat brain was homogenized using a Polytron homogenizer; from tissue; host or cells: rat brain homogenate
Method summary: 2-AG accumulation assay in rat brain homogenate
Assay type: biochemical
Cond: rat brain homogenate; compound 0.1 μM; 2-AG accumulation as percent of vehicle; read-out: Rat Brain 2AG % VehCntrl (%) @ 0.1 μM
Recorded 2-AG accumulation, % of vehicle control at 0.1 µM, one value per entry.
// note: answer is a bare numeric in %

Consider the worked cases shown below.
O=C(c1cscn1)N1CCN(C2CN(C(=O)c3ccc(-c4ccccc4)cc3Cl)C2)CC1 ... 198
O=C(c1ccc(-c2ccc(Cl)c(Cl)c2)cc1)N1CC(N2CCN(C(=O)c3nccs3)CC2)C1 ... 330
O=C(c1ccc(Oc2cccc(Cl)c2)c(F)c1)N1CC(N2CCN(C(=O)c3nccs3)CC2)C1 ... 232

Please find the next molecule below.
Exercise: Provide only the value of recorded 2-AG accumulation, % of vehicle control at 0.1 µM for O=C(c1ccccc1)N1CCN(C2CN(C(=O)c3ccc(-c4cccc(C(F)(F)F)c4)cc3)C2)CC1
Solution: 199

----------
Assayed target: MGL (Rattus norvegicus, UniProt Q8R431)
Construct: one g rat brain was homogenized using a Polytron homogenizer; from tissue; host or cells: rat brain homogenate
Method summary: 2-AG accumulation assay in rat brain homogenate
Assay type: biochemical
Cond: rat brain homogenate; compound 1 μM; 2-AG accumulation as percent of vehicle; read-out: Rat Brain 2AG % VehCntrl (%) @ 1 μM
Measurement type: 2-AG accumulation, % of vehicle control at 1 µM (%)
// note: answer is a bare numeric in %

Consider the worked cases shown below.
Cn1ccc2cc(C(=O)N3CC(N4CCN(C(=O)c5nccs5)CC4)C3)cc(-c3cccc(C(F)(F)F)c3)c21 ... 671
O=C(Nc1ccc(C(=O)N2CC(N3CCN(C(=O)c4nccs4)CC3)C2)cc1)c1cc(F)ccc1Cl ... 848
O=C(c1ccc2c(ccn2-c2ccc(C(F)(F)F)cc2)c1)N1CCN(C2CN(C(=O)c3ccc[nH]3)C2)CC1 ... 867
O=C(c1ccc2c(ccn2-c2ccc(F)c(F)c2)c1)N1CC(N2CCN(C(=O)c3ccc[nH]3)CC2)C1 ... 586

Exercise: Give MGL (Rattus norvegicus, UniProt Q8R431) 2-AG accumulation, % of vehicle control at 1 µM for the following molecule: O=C(c1ccc2c(cnn2-c2ccc(F)c(F)c2)c1)N1CC(N2CCN(C(=O)c3nccs3)CC2)C1
Solution: 784

Exercise: Give MGL (Rattus norvegicus, UniProt Q8R431) 2-AG accumulation, % of vehicle control at 1 µM for the following molecule: O=C(c1ccc(Oc2ccccn2)c(F)c1)N1CC(N2CCN(C(=O)c3nccs3)CC2)C1
Solution: 144

Exercise: Give MGL (Rattus norvegicus, UniProt Q8R431) 2-AG accumulation, % of vehicle control at 1 µM for the following molecule: O=C(c1ccc2c(c1)CCCN2C(=O)C1CC1)N1CC(N2CCN(C(=O)c3nccs3)CC2)C1
Solution: 176

----------
Assayed target: mutant MGL (Homo sapiens, UniProt Q99685, L169S/L176S)
Method summary: MGL ThermoFluor assay - mutant
Type: binding
Cond: ThermoFluor concentration-response, read-out: MGL mutant ThermoFluor Kd
Param label: returns True when Kd < 100 nM, returns False otherwise, including exact equality.

// below: answered compounds
O=C(c1ccc(-c2ccccc2)s1)N1CC(N2CCN(C(=O)c3nccs3)CC2)C1 [Cpd 1122] ... True
O=C(c1ccccc1)N1CCN(C2CN(C(=O)c3ccc(COc4cccc(Cl)c4)cc3)C2)CC1 [Cpd 548] ... True
CN(C)c1ccc(C(=O)N2CC(N3CCN(C(=O)c4ccccc4)CC3)C2)cc1 [Cpd 31] ... False
O=C(c1ccc(Cc2ccccc2)cc1)N1CC(N2CCN(C(=O)c3nccs3)C(c3ccccc3)C2)C1 (centres unmarked) [Cpd 1464] ... False
O=C(c1cscn1)N1CCN(C2CN(C(=O)c3cc4ccc(C(F)(F)F)nc4o3)C2)CC1 [Cpd 808] ... False

Next, consider the following compound.
Exercise: Threshold test, Kd < 100 nM: CCCCCCCCCCCCCCCC(=O)N1CC(N2CCN(C(=O)c3nccs3)CC2)C1 [Cpd 636]
Solution: False

----------
Assayed target: MGL (Rattus norvegicus, UniProt Q8R431)
Construct: one g rat brain was homogenized using a Polytron homogenizer; from tissue; host or cells: rat brain homogenate
Sequence (Q8R431 1-303): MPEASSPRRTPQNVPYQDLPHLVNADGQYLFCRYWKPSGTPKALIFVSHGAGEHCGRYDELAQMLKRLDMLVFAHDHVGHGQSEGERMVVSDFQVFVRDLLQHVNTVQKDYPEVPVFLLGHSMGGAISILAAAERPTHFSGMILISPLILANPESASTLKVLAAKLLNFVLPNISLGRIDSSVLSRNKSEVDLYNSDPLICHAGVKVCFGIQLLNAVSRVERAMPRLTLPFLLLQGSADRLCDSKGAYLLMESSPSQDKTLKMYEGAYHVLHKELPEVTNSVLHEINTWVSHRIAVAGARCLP
Method summary: 2-AG accumulation assay in rat brain homogenate
Format: biochemical
Cond: rat brain homogenate; compound 1 μM; 2-AG accumulation as percent of vehicle; read-out: Rat Brain 2AG % VehCntrl (%) @ 1 μM
Measurement type: 2-AG accumulation, % of vehicle control at 1 µM

O=C(c1ccc(Oc2ncc(C(F)(F)F)cc2Cl)cc1)N1CC(N2CCN(C(=O)c3nccs3)CC2)C1 ... 588%
O=C(c1ccc(COc2cccc(Cl)c2)cc1)N1CC(N2CCN(C(=O)c3cscn3)CC2)C1 ... 861%
O=C(c1nccs1)N1CCN(C2CN(C(=O)c3nn(-c4ccc(Cl)cc4Cl)c4c3CSC/C4=C\c3ccc(F)cc3)C2)CC1 ... 232%
O=C(c1ccc2c(-c3ccc(F)cc3)c[nH]c2c1)N1CC(N2CCN(C(=O)c3nccs3)CC2)C1 ... 722%
O=C(c1ccccc1)N1CCN(C2CN(C(=O)c3ccc4c(ccn4-c4ncccn4)c3)C2)CC1 ... 128%
O=C(c1ccccc1)N1CCN(C2CN(C(=O)c3ccc(Oc4ccc(Cl)c(Cl)c4)cc3)C2)CC1 ... 120%

Exercise: Provide only the value of recorded 2-AG accumulation, % of vehicle control at 1 µM for O=C(c1ccc2c(c1)C1C=CCC1C(c1cccc(Cl)c1)N2)N1CC(N2CCN(C(=O)c3nccs3)CC2)C1 (stereo not shown)
Solution: 856%

Exercise: Provide only the value of recorded 2-AG accumulation, % of vehicle control at 1 µM for CCCCc1ccc(C(=O)N2CC(N3CCN(C(=O)c4nccs4)CC3)C2)cc1
Solution: 534%

Exercise: Provide only the value of recorded 2-AG accumulation, % of vehicle control at 1 µM for O=C(c1ccc2nc(-c3ccccc3)sc2c1)N1CC(N2CCN(C(=O)c3cscn3)CC2)C1
Solution: 319%

Exercise: Provide only the value of recorded 2-AG accumulation, % of vehicle control at 1 µM for O=C(c1ccc2c(c1)CCN(Cc1ccc(C(F)(F)F)cc1)C2)N1CC(N2CCN(C(=O)c3nccs3)CC2)C1
Solution: 945%
